Field: Toxicity. Provide a value for each of the compounds that follow.
- Tested on: MCF7
- RUN_DESCRIPTION: Toxicity was determined against of MCF-7 cells at a dose of 10 ug/mL
- Assay type: cell-based
- MEASUREMENT_PARAMETERS: human
# value in %; strip the unit string

Query: Requested field: Toxicity. Item: "CCN(CC)CC(=O)Nc1c2c(nc3ccccc13)N(C)CC2"
Result: 30

Query: Requested field: Toxicity. Item: "CN1CCc2c1nc1cc(Br)ccc1c2N"
Result: 94

Query: Requested field: Toxicity. Item: "CN1CCc2c1nc1ccccc1c2NC(=O)CNCCc1ccc(O)cc1"
Result: 21

Query: Requested field: Toxicity. Item: "CCN(CC)CC(=O)Nc1c2c(nc3ccccc13)N(Cc1ccccc1)CC2"
Result: 14

Query: Requested field: Toxicity. Item: "Nc1c2c(nc3cc(Br)ccc13)N(Cc1ccccc1)CC2"
Result: 94

Query: Requested field: Toxicity. Item: "O=C(CN1CCCCC1)Nc1c2c(nc3ccccc13)N(Cc1ccccc1)CC2"
Result: 0

Query: Requested field: Toxicity. Item: "Nc1c2c(nc3ccccc13)N(C1CCCCC1)CC2"
Result: 97

Query: Requested field: Toxicity. Item: "CN1CCc2c1nc1ccccc1c2NC(=O)CCc1cc(C(C)(C)C)c(O)c(C(C)(C)C)c1"
Result: 99

Query: Requested field: Toxicity. Item: "CCCCN(CCCC)CC(=O)Nc1c2c(nc3ccccc13)N(C)CC2"
Result: 50

Query: Requested field: Toxicity. Item: "CN1CCc2c1nc1ccccc1c2NC(=O)CN1CCCCC1"
Result: 51

Query: Requested field: Toxicity. Item: "CC(C)NCC(=O)Nc1c2c(nc3ccccc13)N(C)CC2"
Result: 39

Query: Requested field: Toxicity. Item: "CC(C)(C)c1cc(CCC(=O)Nc2c3c(nc4ccccc24)N(Cc2ccccc2)CC3)cc(C(C)(C)C)c1O"
Result: 50

Query: Requested field: Toxicity. Item: "Cc1cc(C)c2c(N)c3c(nc2c1)N(Cc1ccccc1)CC3"
Result: 49

Query: Requested field: Toxicity. Item: "CN1CCc2c1nc1ccccc1c2NC(=O)CNC(C)(C)C"
Result: 28

Query: Requested field: Toxicity. Item: "CCCCN1CCc2c1nc1cc(Br)ccc1c2N"
Result: 98

Query: Requested field: Toxicity. Item: "Nc1c2c(nc3ccccc13)N(Cc1ccccc1)CC2"
Result: 47

Query: Requested field: Toxicity. Item: "O=C(Nc1c2c(nc3ccccc13)N(Cc1cccc(Cl)c1)CC2)C12CC3CC(CC(C3)C1)C2"
Result: 33

Query: Requested field: Toxicity. Item: "CC(C)(C)NCC(=O)Nc1c2c(nc3ccccc13)N(Cc1ccccc1)CC2"
Result: 29

Query: Requested field: Toxicity. Item: "Nc1c2c(nc3ccccc13)N(c1ccccc1)CC2"
Result: 52

Query: Requested field: Toxicity. Item: "CN1CCc2c1nc1ccccc1c2/N=C(/c1ccccc1)N1CCCCC1"
Result: 58

Query: Requested field: Toxicity. Item: "CN1CCc2c1nc1ccccc1c2NC(=O)C12CC3CC(CC(C3)C1)C2"
Result: 29

Query: Requested field: Toxicity. Item: "Cc1ccc2nc3c(c(N)c2c1)CCN3Cc1ccccc1"
Result: 81

Query: Requested field: Toxicity. Item: "CC(C)NCC(=O)Nc1c2c(nc3ccccc13)N(Cc1ccccc1)CC2"
Result: 45

Query: Requested field: Toxicity. Item: "CN1CCN(CC(=O)Nc2c3c(nc4ccccc24)N(Cc2ccccc2)CC3)CC1"
Result: 21

Query: Requested field: Toxicity. Item: "Nc1c2c(nc3cc(Br)ccc13)N(C1CCCCC1)CC2"
Result: 99
